Target: Grb2 SH2 (UniProt P62993)
Sequence (P62993 whole entry, looked up, the tested form may be a part): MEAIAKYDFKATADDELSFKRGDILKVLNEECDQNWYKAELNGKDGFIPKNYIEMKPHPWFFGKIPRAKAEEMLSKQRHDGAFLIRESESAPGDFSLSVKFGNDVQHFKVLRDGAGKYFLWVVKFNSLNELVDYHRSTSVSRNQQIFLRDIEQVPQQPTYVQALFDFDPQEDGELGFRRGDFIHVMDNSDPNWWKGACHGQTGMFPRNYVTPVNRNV
Assay: SH2 binding enrichment of the phosphorylated peptide, bacterial display (enrichment ratio); higher = better substrate or ligand; peptides without Tyr show the background;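 further: peptide library displayed on the E. coli surface as eCPX fusions, selected cells deep-sequenced, score is each peptide's frequency after selection divided by its frequency in the input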
REPORTED_METRIC: SH2 binding enrichment

Query for Grb2 SH2 (UniProt P62993): what SH2 binding enrichment does the record show for PIAPVYAPSMV [ACAT1_Y331_A333P] ?
0.785

Query for Grb2 SH2 (UniProt P62993): what SH2 binding enrichment does the record show for FDKEFYSVHNK [MET_Y1235_YF] ?
0.917

Query for Grb2 SH2 (UniProt P62993): what SH2 binding enrichment does the record show for GFVEDYRPPFF [ACVRL1_Y421_I417F_YF] ?
0.784
